- Test system: BDF1 mice, P388 leukemia ip, median survival T/C
- procedureSummary: NCI In Vivo Anticancer Drug Screen. Data for tumor model P388 Leukemia (intraperitoneal) in B6D2F1 (BDF1) mice
- experimentalConditions: endpoint: median survival time; dose: 400.0 mg/kg/injection; schedule: Q01DX001 (ip); vehicle: saline; higher = longer survival
Inconclusive results and toxic doses are left out.
Measured T/C by item

{"molecule": "COc1ccc(NC(=S)Nc2ccccn2)cc1", "T/C": "107 % of control"}
{"molecule": "CC(C)=NNC(=O)C1CCN1Cc1ccccc1 (centres undefined)", "T/C": "102 % of control"}
{"molecule": "C[C@]12C=CC(=O)C=C1CC[C@@H]1[C@@H]2C(=O)C[C@@]2(C)[C@H]1CC[C@]2(O)C(=O)CO", "T/C": "121 % of control"}
{"molecule": "COC(=O)C(C)C(=O)OC", "T/C": "113 % of control"}

###

- System: BDF1 mice, P388 leukemia ip, median survival T/C
- procedureSummary: NCI In Vivo Anticancer Drug Screen. Data for tumor model P388 Leukemia (intraperitoneal) in B6D2F1 (BDF1) mice
- experimentalConditions: endpoint: median survival time; dose: 50.0 mg/kg/injection; schedule: Q04DX003 (ip); vehicle: saline with Tween-80; higher = longer survival
Inconclusive results and toxic doses are left out.

{"compound": "CCCC1CC[N-]CC1.CCCC1CC[N-]CC1.[Cl][Pt+2]([Cl])([Cl])[Cl]", "T/C": "160 % of control"}
{"compound": "CCOC(=O)c1cnn2c(SC)ncnc12", "T/C": "100 % of control"}
{"compound": "O=C(CBr)N1CCC2(CC1)SSC1(CCN(C(=O)CBr)CC1)S2", "T/C": "113 % of control"}
{"compound": "CCOC(=O)c1c(NC(C)=O)sc2c1CCCC2", "T/C": "90 % of control"}
{"compound": "COc1cc2cc[n+](C)c(Cc3ccccc3)c2cc1OC", "T/C": "113 % of control"}
{"compound": "CC(=O)OCCN1CCN(CCCN2c3ccccc3Sc3ccc(C(F)(F)F)cc32)CC1", "T/C": "91 % of control"}
{"compound": "FC(F)(F)C(F)(F)C(F)(F)c1nc2nc(Cl)c(Cl)nc2[nH]1", "T/C": "95 % of control"}
{"compound": "CCOC(=O)C(Cc1ccc(N(CCCl)CCCl)cc1)NC(=O)C(Cc1ccccc1)NC=O (configuration not stated)", "T/C": "172 % of control"}
{"compound": "Cc1nc(Cl)c(C(N)=O)nc1C", "T/C": "113 % of control"}
{"compound": "CCOC(=O)c1ccc(NC(N)=O)cc1", "T/C": "102 % of control"}
{"compound": "Cc1ccc(C(=O)O)cc1S(=O)(=O)F", "T/C": "101 % of control"}
{"compound": "C[N+](C)(Cc1ccccc1)CC(O)COc1ccccc1 (configuration not stated)", "T/C": "104 % of control"}
{"compound": "COc1cc(/C=N/Nc2ccc([N+](=O)[O-])cc2)cc(OC)c1OC", "T/C": "100 % of control"}
{"compound": "C=CCNC(=S)Nc1ccc(N(C)C)cc1", "T/C": "100 % of control"}
{"compound": "COc1cc(C=Nc2cc(Cl)ccc2-n2ccnc2C)ccc1N(CCCl)CCCl", "T/C": "170 % of control"}
{"compound": "CCNC(C)(C)C(S)c1ccc(Cl)s1 (configuration not stated)", "T/C": "91 % of control"}
{"compound": "C=CCCN1CCCC1", "T/C": "95 % of control"}
{"compound": "O=C(NC(=S)Nc1ccccc1C(=O)O)c1ccccc1", "T/C": "104 % of control"}
{"compound": "Cc1csc(/N=C/c2ccc([N+](=O)[O-])o2)n1", "T/C": "109 % of control"}
{"compound": "COc1ccc(C[n+]2cc([O-])on2)cc1", "T/C": "100 % of control"}
{"compound": "CC(=O)OCC(=O)[C@@]12OC(C)(C)O[C@@H]1C[C@H]1[C@@H]3CC(C=O)=C4C=C(OCCCl)CC[C@]4(C)[C@@]3(F)[C@@H](O)C[C@@]12C", "T/C": "114 % of control"}
{"compound": "CCCCCCCCOB(OCCCCCCCC)OCCCCCCCC", "T/C": "100 % of control"}
{"compound": "S=c1[nH]c2nc(Cl)c(Cl)nc2[nH]1", "T/C": "94 % of control"}
{"compound": "COC(=O)C(C#N)Cc1ccccc1Cl (configuration not stated)", "T/C": "101 % of control"}
{"compound": "CCCCCCN(CCCCCC)P(=O)(N1CC1)N1CC1", "T/C": "150 % of control"}
{"compound": "COc1cc(C(=O)C=C(C(F)(F)F)C(F)(F)F)cc(OC)c1OC", "T/C": "120 % of control"}
{"compound": "CCc1ccc(C(C)(C)C)cc1", "T/C": "109 % of control"}
{"compound": "N#CCC(NC(=O)OCc1ccccc1)C(=O)OCc1ccccc1 (configuration not stated)", "T/C": "96 % of control"}
{"compound": "CCOC(=O)c1ccc(N=CNc2ccc(C(=O)OCC)cc2)cc1", "T/C": "87 % of control"}
{"compound": "COc1cc(C=NCCN=Cc2cc(OC)c(OC)c(OC)c2)cc(OC)c1OC", "T/C": "92 % of control"}
{"compound": "CCC(CC)OC(=O)c1cccc(C)c1", "T/C": "104 % of control"}
{"compound": "C/C(Cc1ccccc1)=N/N(C)C", "T/C": "100 % of control"}

###

- Tested on: BDF1 mice, P388 leukemia ip, median survival T/C
- procedureSummary: NCI In Vivo Anticancer Drug Screen. Data for tumor model P388 Leukemia (intraperitoneal) in B6D2F1 (BDF1) mice
- experimentalConditions: endpoint: median survival time; dose: 200.0 mg/kg/injection; schedule: Q04DX003 (ip); vehicle: saline with Tween-80; higher = longer survival
Inconclusive results and toxic doses are left out.
recordedMetric: T/C

{"compound": "CCN(CC)CCCNc1ncnc2onc(C)c12", "val": "97 % of control"}
{"compound": "Cc1ccc(C(=O)/C=C/N2CCN(c3ccccc3)CC2)c(C)c1", "val": "100 % of control"}
{"compound": "O=C1NC(=O)C(c2ccc(O)cc2)N1 (stereo not drawn)", "val": "109 % of control"}
{"compound": "COc1cccc(CCNC(=O)CC(=O)O)c1OC", "val": "105 % of control"}
{"compound": "NC(N)=Nc1ccc(C(=O)O)cc1", "val": "100 % of control"}
{"compound": "CCOC(=O)C(CSCSC)NC(=O)/C=C/c1cccnc1 (stereo not drawn)", "val": "91 % of control"}
{"compound": "O=C1C2CCCC1C(c1ccccc1)C=C2c1ccc(O)cc1 (stereo not drawn)", "val": "104 % of control"}
{"compound": "Nc1cc2c3ccccc3ncc2c2ccccc12", "val": "100 % of control"}
{"compound": "O=C1NC(=O)C2(CCCCCC2)N1", "val": "100 % of control"}
{"compound": "Cc1ccc2c(Nc3ccc(NS(C)(=O)=O)cc3)c3ccccc3nc2c1C", "val": "272 % of control"}
{"compound": "Cc1ccc(CC2NC(=O)NC2=O)cc1 (stereo not drawn)", "val": "105 % of control"}
{"compound": "COC(=O)C(C#N)Cc1ccccc1Cl (stereo not drawn)", "val": "98 % of control"}
{"compound": "CN(C)c1ccc(NC(=O)Nc2cccc(Cl)c2)cc1", "val": "90 % of control"}

###

Each item that follows carries a reported T/C.
- System: BDF1 mice, P388 leukemia ip, median survival T/C
- procedureSummary: NCI In Vivo Anticancer Drug Screen. Data for tumor model P388 Leukemia (intraperitoneal) in B6D2F1 (BDF1) mice
- experimentalConditions: endpoint: median survival time; dose: 25.0 mg/kg/injection; schedule: Q01DX009 (ip); vehicle: Klucel (hydroxypropylcellulose) (HPC); higher = longer survival
Inconclusive results and toxic doses are left out.

{"chemicalStructure": "C[C@]12CCC(=O)C=C1CC[C@H]1[C@@H]3CC[C@@]4(OCC4=O)[C@@]3(C)C[C@H](O)[C@@]12F", "targetOrSystem": "BDF1 mice, P388 leukemia ip, median survival T/C", "T/C": "96 % of control"}
{"chemicalStructure": "O=c1[nH]cc(F)c(=O)[nH]1.[Tl]", "targetOrSystem": "BDF1 mice, P388 leukemia ip, median survival T/C", "T/C": "87 % of control"}
{"chemicalStructure": "O=S(=O)(O)c1ccc(-c2ccccc2)cc1", "targetOrSystem": "BDF1 mice, P388 leukemia ip, median survival T/C", "T/C": "95 % of control"}
{"chemicalStructure": "NC(=O)c1cn[nH]c1N", "targetOrSystem": "BDF1 mice, P388 leukemia ip, median survival T/C", "T/C": "87 % of control"}
{"chemicalStructure": "O=C(CCl)Nc1cc(Cl)ccc1N1CCCC1", "targetOrSystem": "BDF1 mice, P388 leukemia ip, median survival T/C", "T/C": "95 % of control"}
{"chemicalStructure": "CO/N=C/c1ccc([N+](=O)[O-])s1", "targetOrSystem": "BDF1 mice, P388 leukemia ip, median survival T/C", "T/C": "100 % of control"}
